tested on: Rattus norvegicus; assay: Antiinflammatory activity in Wistar Albino rat assessed as inhibition of carrageenan-induced paw oedema at 50 mg/kg, ip after 2 hrs; assay type: functional; conditions: route intraperitoneal
readout: inhibition in vivo at 50 mg/kg (%)
Give just the numeric value; % need not be written.

Recorded results for 4 molecules are shown here.
- structureSmiles: "N#Cc1c(-c2ccc(Br)cc2)c2c([nH]c1=S)-c1ccccc1SCC2"
  unitInfo: "%"
  inhibition in vivo at 50 mg/kg: 56.7
- structureSmiles: "C1COCCN1.COc1ccc(-c2c(C#N)c(S)[nH]c(=S)c2C#N)cc1.O"
  unitInfo: "%"
  inhibition in vivo at 50 mg/kg: 55.5
- structureSmiles: "C1CCNCC1.COc1ccc(-c2c(C#N)c(S)[nH]c(=S)c2C#N)cc1.O"
  unitInfo: "%"
  inhibition in vivo at 50 mg/kg: 47
- structureSmiles: "CCOc1nc2c(c(-c3ccc(OC)cc3)c1C#N)CCSc1ccccc1-2"
  unitInfo: "%"
  inhibition in vivo at 50 mg/kg: 79.5

With those in mind, consider the next molecule.
Sample `COc1nc2c(c(-c3ccco3)c1C#N)CCSc1ccccc1-2` ; inhibition in vivo at 50 mg/kg observed: 51.1
